System: MOLM-13
assay-method-text: cell viability (% survival relative to DMSO control, bortezomib = 0%); higher = less cytotoxic
details: 1000 nM; 72 h
For each record, write down the corresponding cell viability.
Answers are plain numbers, in %.

| compound | measurement-name | val |
| --- | --- | --- |
| NCc1ccc(-c2cccnc2)s1 | cell viability | 97.8 |

Record cell viability per entry; entries follow.
1. OCC(CO)N[C@H]1C[C@](O)(CO)[C@@H](O)[C@H](O)[C@H]1O
2. NS(=O)(=O)c1ccc(NC(=O)Cc2ccccc2)cc1 [4-(2-Phenylacetamido)Benzenesulfonamide]
3. CN(C)C(=N)NC(=N)N
4. O=C(Oc1ccc([N+](=O)[O-])cc1)N1CCC(C(O)(c2ccc3c(c2)OCO3)c2ccc3c(c2)OCO3)CC1
5. CC(C)c1ccc2c(c1)c(SC(C)(C)C)c(CC(C)(C)C(=O)O)n2Cc1ccc(Cl)cc1
6. CCC(CC#N)OC(=O)N[C@@H](C)c1cccc(NC(=O)Nc2ccc(-c3cnco3)c(OC)c2)c1 (stereo in doubt)

Output:
[70, 84.6, 102, 107, 85.3, 1.17]

Record cell viability per entry; entries follow.
1. Cc1nc(-c2ccc(OCC(C)C)c(C#N)c2)sc1C(=O)O
2. OC[C@H]1N[C@@H](c2c[nH]c3c(O)ncnc23)[C@H](O)[C@@H]1O
3. Cn1cc(C[C@@H](N)C(=O)O)c2ccccc21

Output:
103
103
86.8

* * *

Tested on: SHI-1
assay-method-text: cell viability (% survival relative to DMSO control, bortezomib = 0%); higher = less cytotoxic
details: 10000 nM; 72 h
For each record, write down the corresponding cell viability.
Give bare numbers, in %.

| sample-smiles | value-unit | val |
| --- | --- | --- |
| OC[C@H]1N[C@@H](c2c[nH]c3c(O)ncnc23)[C@H](O)[C@@H]1O | % | 98.9 |
| O=c1[nH]c(=O)n([C@H]2C[C@H](O)[C@@H](CO)O2)cc1I | % | 60.3 |

Now let's try a different one.
Input: Please report the recorded cell viability for `COc1cc(/C=C/c2ccc(OC)cc2OC)cc(OC)c1` .
Output: 98.9

* * *

For each record, write down the corresponding cell viability.
Tested on: myeloid leukemia patient primary cells Pat.6
assay-method-text: cell viability (% survival relative to DMSO control); higher = less cytotoxic
details: 1 nM; 72 h
Structures can show the parent of a compound that is named as a salt.

Solved cases below.
| compound | measurement-name | val |
| --- | --- | --- |
| CC(C)c1onc(-c2c(Cl)cccc2Cl)c1COc1ccc(/C=C/c2cccc(C(=O)O)c2)c(Cl)c1 | cell viability | > 100% |
| Clc1cc(Cl)c(OCC#CI)cc1Cl | cell viability | > 100% |

Now let's try a different one.
Input: Please report the recorded cell viability for CC(C)(Cc1ccccc1)NCC(O)c1ccc(O)c(NS(C)(=O)=O)c1 (stereo not drawn) [Zinterol hydrochloride] .
Output: > 100%

* * *

Test system: myeloid leukemia patient primary cells Pat.15
assay-method-text: area under dose-response curve (viability, 1 nM-10 uM) (fraction (0-1)); higher = more sensitive
details: 72 h
For each record, write down the corresponding area under dose-response curve.
One number for each entry.

| sample-smiles | area under dose-response curve |
| --- | --- |
| c1ccc2c(c1)SCc1c-2[nH]c2ccccc12 | 0.22 |

Now let's try a different one.
Input: Please report the recorded area under dose-response curve for `O=C(CCl)N(CCCNC(=O)C(F)(F)F)c1ccc([N+](=O)[O-])cc1` .
Output: 0.159
